Let's look at some variants and their measured self-cleavage.
B1: HDV Ribozyme (parent)
chain: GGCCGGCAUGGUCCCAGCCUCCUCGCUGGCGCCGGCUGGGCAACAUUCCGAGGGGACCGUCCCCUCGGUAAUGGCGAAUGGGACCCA

Variants of: B1
test_details: self-cleavage, relative activity (ratio to wild type); higher = more cleavage; co-transcriptional
metric_name: self-cleavage

INSERT INTO results (sequence_variant, reported) VALUES
  ('C3U U69G', 0.649),
  ('C3U C57U', 0.794),
  ('G50C G55A', 0.959),
  ('G52C U65G', 1.04),
  ('U37C G50C', 1.07),
  ('U12C A78G', 0.192),
  ('C7U G38A', 0.0496),
  ('A16C A71G', 0.7),
  ('G35U A70G', 0.554),
  ('A42C C57A', 0.373),
  ('C62A C63A', 1.03),
  ('G67U', 0.999),
  ('G2C C19U', 0.0665),
  ('G59U C66U', 0.875),
  ('C26G G52C', 0.889),
  ('C7A A87U', 0.505),
  ('C48U G52U', 0.577),
  ('G1A U20C', 0),
  ('C18A C85A', 0.224),
  ('A77G U79A', 0.554),
  ('G5A G81U', 0),
  ('C24A G35C', 0.0692),
  ('G38U G76C', 0.228),
  ('C13G A77U', 0.119),
  ('C58U G74U', 0.51),
  ('U46G A56G', 0.499),
  ('G52A C86A', 0.9),
  ('C19U G38A', 0.0875),
  ('C41A A56C', 0.937),
  ('C63G G73A', 0.424),
  ('C18U G76U', 1.05),
  ('C26U U72G', 0.721),
  ('U23A A56G', 1.02),
  ('G2U C57U', 0.0365),
  ('C44G G52U', 0.727),
  ('G1U C13G', 0.369),
  ('U47C C64G', 0.511);

Every entry's value here was drawn from the RNAGym collection of RNA variant scans (doi:10.7554/elife.80360).
